protocol_notes: Pharmacokinetics following a single oral dose
Design: species or system Male Long Evans Rats
conditions_used: male, Long Evans, rat, in vivo, po, 10 mg/kg; Table 1; obtained according to Example 10
Where a name gives a salt, the structure may show the parent alone.
Measured bioavailability, listed per entry for reference.
The reply should contain only the number, in %.

Example results:
INSERT INTO assay_data (compound, reading) VALUES
  ('O=S(=O)(c1cccc2ccccc12)c1n[nH]c2ccc(N3CCNCC3)cc12 [Compound C, dihydrochloride, reference compound]', 3),
  ('CC(C)Cn1nc(S(=O)(=O)c2cccc3ccccc23)c2cc(N3CCNCC3)ccc21 [Example 1, dihydrochloride]', 22);

Shift focus to the following entry.
Input O=S(=O)(c1cccc2ccccc12)c1nn(Cc2ccccc2)c2ccc(N3CCNCC3)cc12 [Example 2, dihydrochloride] . Output bioavailability: 50
